The measurements presented in this section are drawn from PubChem BioAssay (NCI).

Test system: LOX IMVI melanoma
testSummary: NCI-60 one-dose screen, 48 h (100 = growth as untreated, 0 = no growth, -100 = all killed)
conditionsUsed: 10 µM unless noted
The panel holds about 83,000 compounds, 20% with a hit somewhere; the sample as a whole holds those more often.
observationType: growth (%)

>>> reported("Cc1nc2sc(C(=O)Nc3ccccc3)c(N)c2cc1C(=O)c1ccc(C(F)(F)F)cc1")
96.9
>>> reported("O=C1c2cccnc2C(=O)c2nc3cc(N4CCN(C5CC5)CC4)ccc3nc21")
-46.5
>>> reported("Fc1ccc(C2CC(c3cccc(Nc4ccncc4)c3)=NN2c2ccc(Cl)cc2)cc1 (centres undefined)")
-67.1
>>> reported("O=C(OCc1nc2nc(Cl)nc(N3CCOCC3)c2[nH]1)n1ccnc1")
-77.1
>>> reported("Cc1ccc(C2C3CC4CCCCC4N3[C@@]3(C(=O)Nc4cc(Cl)ccc43)C2C(=O)c2nc3ccccc3[nH]2)cc1 (some centres undefined)")
29.7
>>> reported("O=c1[nH]nc(-c2ccc(Cl)cc2)cc1Cc1cccc([N+](=O)[O-])c1")
93.5
>>> reported("CCOC(=O)c1c(C)nc2c(c1N)C(=O)C(=O)N2Cc1ccc(C(F)(F)F)cc1")
54.1
>>> reported("COc1cccc2cc(-c3cc4ccccc4[nH]3)/c(=N/C(=S)Nc3ccc(C)cc3)oc12")
71.2
>>> reported("Fc1cc(C2=NNC(c3ccc[nH]3)C2)ccc1-n1ccc(C(F)(F)F)n1 (centres undefined)")
94.2
